Listing of entries alongside the reported EC50 hGlucagon-R (cAMP).
measured_on: human glucagon receptor (human, UniProt P47871 26-477)
Sequence (P47871 26-477): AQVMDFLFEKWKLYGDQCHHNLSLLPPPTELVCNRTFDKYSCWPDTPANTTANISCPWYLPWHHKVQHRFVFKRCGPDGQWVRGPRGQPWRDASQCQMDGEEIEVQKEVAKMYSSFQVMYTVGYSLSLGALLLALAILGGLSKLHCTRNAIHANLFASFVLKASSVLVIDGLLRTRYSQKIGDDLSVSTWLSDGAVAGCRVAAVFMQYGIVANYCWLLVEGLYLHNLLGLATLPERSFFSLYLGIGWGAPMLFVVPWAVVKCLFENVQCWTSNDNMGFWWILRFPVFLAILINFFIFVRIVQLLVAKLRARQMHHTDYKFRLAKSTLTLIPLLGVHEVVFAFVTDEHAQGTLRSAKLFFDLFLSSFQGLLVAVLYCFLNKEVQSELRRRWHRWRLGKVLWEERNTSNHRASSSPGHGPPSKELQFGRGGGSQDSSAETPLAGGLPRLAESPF
method_summary: cell-based or functional assay
Numbered stars: 1 amine (or outer) side, 2 acyl side, 3 side chain; on linkers, the order of the positions; unused ones are H or OH. Square brackets hold non-standard residues; d marks the D form. Side chains are listed from the residue outwards. Ends that are not written are not given here. γGlu = O=C(O)[C@H](CCC(=O)[*:2])N[*:1]; x53 = not defined here; x76 = not defined here; Aib = CC(C)(N)C(=O)O
assay_endpoint: EC50 hGlucagon-R (cAMP) (nM)

* HXQGTFTSDLSKQKESRAAXLFIEWLKNGGPSSGAPPPS (dSer at 2; K(γE-x53) at 14; Aib at 20; C-terminal NH2) [SEQ ID NO: 121] | 0.0237
* HXQGTFTSDLSKQKESKAAQEFIEWLKAGGPSSGAPPPS (dSer at 2; K(γE-x53) at 14; C-terminal NH2) [SEQ ID NO: 28] | 0.0126
* H[Aib]QGTFTSDLSKQK([γGlu-x53])DSRRAQDFIEWLKNGGPSSGAPPPS-NH2 (reading uncertain) [SEQ ID NO: 115] | 0.0019
* HXQGTFTSDLSKQKDSRRAQDFIEWLKNGGPSSGAPPPS (dSer at 2; K(γE-x53) at 14; C-terminal NH[(CH2)14-CH3]) [SEQ ID NO: 108] | 0.009
* H[Aib]QGTFTSDLSKQK([γGlu-x76])ESRAAQDFIEWLKAGGPSSGAPPPS-NH2 (reading uncertain) [SEQ ID NO: 202] | 0.0069
* HXQGTFTSDLSKQKESRAAQLFIEWLKAGGPSSGAPPPS (dSer at 2; K(γE-x53) at 14; C-terminal NH2) [SEQ ID NO: 48] | 0.0536
